System: L1210 leukemia ip in BDF1 mice, survival T/C
method summary: NCI In Vivo Anticancer Drug Screen. Data for tumor model L1210 Leukemia (intraperitoneal) in B6D2F1 (BDF1) mice
run conditions: endpoint: mean survival time; dose: 200.0 mg/kg/injection; schedule: Q01DX009 (ip); vehicle: saline with Tween-80; higher = longer survival
Method: The antitumor activity of compounds was measured in mice bearing transplantable tumors. Survival or tumor size were measured and the results are expressed as the measurement made in the treated group (T) divided by the measurement made in the vehicle treated control group (C). The tumor model used in this assay is L1210 Leukemia (intraperitoneal) in B6D2F1 (BDF1) mice
Toxic doses and inconclusive results are not listed.
assay endpoint: T/C

# query: T/C of entry COc1ccc(C(=O)c2c(C(=O)O)ccc3ccccc23)cc1
95 % of control

Now this one: CCC(=O)/C=C/C1=C(C)CCCC1(C)C
93 % of control

Proceed to Cc1c(Cl)cccc1NC(=O)N1CCCC(C)C1 (stereo unspecified)
90 % of control

Moving on to Cc1ccc(S(=O)(=O)NCN2C(=O)c3ccccc3C2=O)cc1
98 % of control

Subsequent entry: CCOC(=O)CNC(=O)Nc1ccc(OC)cc1
93 % of control

Also CCCCCCCCCCCCCCCCCC(=O)OCC(O)COC(C)=O (stereo unspecified) ?
91 % of control

====

Test system: L1210 leukemia ip in BDF1 mice, survival T/C
method summary: NCI In Vivo Anticancer Drug Screen. Data for tumor model L1210 Leukemia (intraperitoneal) in B6D2F1 (BDF1) mice
run conditions: endpoint: mean survival time; dose: 200.0 mg/kg/injection; schedule: Q04DX003 (ip); vehicle: acetone; higher = longer survival
Inconclusive results and toxic doses are left out.
Exercise: for every item that follows, state its recorded T/C.

Tell me the measured T/C of c1ccc2c(c1)ccc1[s+]cccc12 , please.
105 % of control

What do we get for O=C(NNC(=O)C1C2CCCCC21)C1C2CCCCC21 (stereo not given) ?
91 % of control

Also check CCN(CC)C(=O)C(Br)C(Br)C(=O)N(CC)CC (stereo not given)
100 % of control

Next molecule: CN1N=Nc2cccc3cccc1c23
87 % of control

Quick one: Cc1c(O)cccc1N(C)C
106 % of control

====

I'd appreciate it if you could supply T/C values for the items below.
System: L1210 leukemia ip in BDF1 mice, survival T/C
method summary: NCI In Vivo Anticancer Drug Screen. Data for tumor model L1210 Leukemia (intraperitoneal) in B6D2F1 (BDF1) mice
run conditions: endpoint: mean survival time; dose: 50.0 mg/kg/injection; schedule: Q04DX002 (ip); vehicle: saline; higher = longer survival
Inconclusive results and toxic doses are left out. Square brackets hold non-standard residues; d marks the D form. Peptide text beside a SMILES is read from it. * marks the point of attachment. ξ: configuration not given here. ξE = NC(CCC(=O)O)C(=O)O; Cbz = O=C(OCc1ccccc1)*

// returns reported T/C for input NC(CCl)=NCCOC12CC3CC(CC(C3)C1)C2
112 % of control

Try the compound O=C(O)CCC(NC(=O)OCc1ccccc1)C(=O)NCC(=O)O (centres undefined) (Cbz-[ξE]-Gly-OH)
100 % of control

Item: COc1cc2c(cc1O)C(CCc1cc(OC)c(OC)c(OC)c1)=NCC2
101 % of control

Cc1ccc(S(=O)(=O)OC2C3OC(=S)OCC3OC3OC(C)(C)OC32)cc1 (centres undefined) , same question.
107 % of control
